- PROTOCOL_TEXT: NCI Yeast Anticancer Drug Screen. Data for the CLN2oe strain (AID 163);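 further: 0% = growth of vehicle-only control cultures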
- SETTINGS: S. cerevisiae CLN2oe strain, at 100.0 µM, active compounds read high
This is part of a sample that, as a whole, favours compounds with a hit. Of some 79,000 tested, about 15% had one in any assay.
ENDPOINT: growth inhibition (%)

>>> quantitative_result("CC(C)c1[nH]nc(C(N)=O)c1N=NN(C)C")
6
>>> quantitative_result("Cc1c2cc[n+](CCN3CCCCC3)cc2c(C)c2c1[nH]c1ccc(O)cc12")
72
>>> quantitative_result("C(=N/NC1=NCCN1)/c1c2ccccc2c(/C=N\\NC2=NCCN2)c2ccccc12")
84
>>> quantitative_result("COc1ccc(S(=O)(=O)N/N=C\\c2cc([N+](=O)[O-])cc(I)c2O)c(OC)c1OC")
93
>>> quantitative_result("CCCCC1=NNC(=O)C1")
-28
>>> quantitative_result("CCOC(=O)C1=C(C)NC(C)=C(C(=O)OCC)C1c1ccccc1Cl")
94
>>> quantitative_result("O=Nn1c2ccccc2c2ccccc21")
65
>>> quantitative_result("CCOC(=O)C(NC(=O)CC)(N1CCN(c2cc3c(cc2F)c(=O)c(C(=O)O)cn3C2CC2)CC1)C(F)(F)F (configuration not stated)")
86
>>> quantitative_result("CCOC(=O)C1=C(C)NC(C)=C(C(=O)OCC)C1c1ccc(C)cc1")
95
>>> quantitative_result("S=C1SCN(CCc2ccccc2)CN1CCc1ccccc1")
17
>>> quantitative_result("NCc1c(O)ccc2ccccc12")
98
>>> quantitative_result("ClCCn1c(CCl)nc2ccc(Cl)cc21")
97

---

Collected growth inhibition values appear next to each entry.
- PROTOCOL_TEXT: NCI Yeast Anticancer Drug Screen. Data for the mec2-1 strain (AID 157)
- SETTINGS: S. cerevisiae mec2-1 strain, at 33.0 µM, active compounds read high
This is part of a sample that, as a whole, favours compounds with a hit. Of some 79,000 tested, about 15% had one in any assay.
ENDPOINT: growth inhibition (%)

>>> quantitative_result("Cc1ccc2occ/c(=N\\Nc3ccccc3)c2c1")
17
>>> quantitative_result("Cc1cccc(/C=N/NC(=S)N(C)CCc2ccccn2)n1")
99
>>> quantitative_result("O=C1NC(c2c(Cl)cccc2Cl)Nc2ccccc21 (stereo not drawn)")
63
>>> quantitative_result("COc1ccc2oc(-c3ccc(Cl)cc3)c(N3CCN(C)CC3)c2c1")
98
>>> quantitative_result("CCC(=O)N(c1ccccc1)C(C)CN1CCC(O)(c2cccc(C(F)(F)F)c2)CC1 (stereo not drawn)")
23
>>> quantitative_result("CC(C)c1[nH]nc(C(N)=O)c1N=NN(C)C")
4
>>> quantitative_result("CC(=O)CC(=O)/C=C/c1cccs1")
10
>>> quantitative_result("Cc1cc(C(C)(C)CC(C)(C)C)cc(O)c1O")
95
>>> quantitative_result("COc1cc([C@@H]2c3cc4c(cc3[C@@H](OC3OC5COC(C)OC5C(O)C3O)[C@H]3COC(=O)[C@H]23)OCO4)cc(OC)c1O (stereo partly drawn)")
2
>>> quantitative_result("OCCNCCOc1ccc(/C(=C(/Cl)c2ccccc2)c2ccccc2)cc1")
98
>>> quantitative_result("CC(=O)Oc1ccc(N2C(=O)C3c4[nH]c5ccccc5c4C4CCC(C(C)(C)C)CC4C3C2=O)cc1 (stereo not drawn)")
98
>>> quantitative_result("C=C(C)[C@@H]1CCc2c(O)c(O)c(=O)cc(C)c2C1")
61
>>> quantitative_result("CCOC(=O)[C@]1(Br)CC[C@@]1(Br)C(=O)OCC")
97
>>> quantitative_result("O=C1c2ccccc2CCC1(Br)Br")
99
>>> quantitative_result("O=Nn1c2ccccc2c2ccccc21")
21
>>> quantitative_result("Nc1nc(N)c2c(n1)CCC(S(=O)(=O)c1ccc3ccccc3c1)C2 (stereo not drawn)")
80
>>> quantitative_result("Nc1nc(F)nc2c1ncn2C1OC(COP(=O)(O)O)C(O)C1O (stereo not drawn)")
27
>>> quantitative_result("CC(=O)N1C(=O)/C(=C\\C(=O)c2ccc([N+](=O)[O-])cc2)c2ccccc21")
91
>>> quantitative_result("C(=N/NC1=NCCN1)/c1c2ccccc2c(/C=N\\NC2=NCCN2)c2ccccc12")
81
>>> quantitative_result("O=C1CSC(=S)N1Cc1ccc(Cl)cc1Cl")
99
>>> quantitative_result("O=C1C=CC(=O)N1c1ccc2c(c1)OCO2")
100
>>> quantitative_result("O=[N+]([O-])c1cc(S(=O)(=O)Nc2ccccc2)ccc1Cl")
91
>>> quantitative_result("CC1OC(OC2CCCc3c(O)c4c(c(O)c32)C(=O)c2ccccc2C4=O)CC(N)C1O (stereo not drawn)")
82

---

- PROTOCOL_TEXT: NCI Yeast Anticancer Drug Screen. Data for the sgs1 strain (AID 173);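 further: 0% = growth of vehicle-only control cultures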
- SETTINGS: S. cerevisiae sgs1 mutant, at 33.0 µM, active compounds read high
The panel holds about 79,000 compounds, 15% with a hit somewhere; the sample as a whole holds those more often. Residues, ends and D or L forms follow the SMILES beside them. *: point of attachment. CH2Cl = ClC*
ENDPOINT: growth inhibition (%)

>>> quantitative_result("CCn1ncc(N=O)c1N")
39
>>> quantitative_result("O=C1c2c(O)cccc2-c2nn(CCNCCO)c3ccc(NCCNCCO)c1c23")
11
>>> quantitative_result("Nc1nc(N)c2c(n1)CCC(S(=O)(=O)c1ccc3ccccc3c1)C2 (stereo not given)")
56
>>> quantitative_result("CC(=O)[O-].O=C([CH-]C(=O)c1ccccc1)c1ccccc1.O=C([CH-]C(=O)c1ccccc1)c1ccccc1.[Sm+3]")
97
>>> quantitative_result("N#CC(=C1C=CC(=NO)C=C1)c1ccccc1")
99
>>> quantitative_result("OC(CN1CCCCC1)c1cc(Cl)c(Cl)c(Cl)c1 (stereo not given)")
27
>>> quantitative_result("CC(=O)NC(CC(C)C)C(=O)NC(Cc1ccccc1)C(=O)CCl (stereo not drawn) (Ac-Leu-Phe-CH2Cl; configuration not given here)")
15
>>> quantitative_result("NC(N)=NCCCS(=O)(=O)Nc1ccc(Nc2c3ccccc3nc3cc([N+](=O)[O-])ccc23)cc1")
23
>>> quantitative_result("Cc1cc(OCc2ccccc2)ccc1[N+](=O)[O-]")
38
>>> quantitative_result("CCOC(=O)CNC(=O)c1[nH]cnc1/N=N/N(C)C")
9
>>> quantitative_result("CC(C)(O)c1ccccc1C(c1ccccc1)c1ccccc1")
-5
>>> quantitative_result("CC(=O)Oc1ccc(C(=O)c2ccccc2)c(O)c1")
46
>>> quantitative_result("Cn1c2nc3ccccc3c-2nc2ccccc21")
97
>>> quantitative_result("O=S(=O)(c1cc(Cl)ccc1O)c1cc(Cl)ccc1O")
99
>>> quantitative_result("Cc1ccc(S(=O)(=O)Nc2ccc3c(c2)C(O)c2ccccc2-3)cc1 (stereo not given)")
86
>>> quantitative_result("CCCCC(CC)C(=O)Oc1ccc(C(=O)c2ccccc2)c(O)c1 (stereo not given)")
63
>>> quantitative_result("Nc1cc(F)cc2c1-c1ccc(F)cc1C2")
46
>>> quantitative_result("NC(=O)N1c2ccccc2C=Cc2ccccc21")
-52
>>> quantitative_result("O=C(/C=C\\c1ccc([N+](=O)[O-])o1)Nc1ccc(Cl)cc1")
98
>>> quantitative_result("CC(=O)C1=C(C)O/C(=C/c2cccc(Cl)c2)C1=O")
39
>>> quantitative_result("CC(=O)N1C(=O)/C(=C\\C(=O)c2ccc([N+](=O)[O-])cc2)c2ccccc21")
96
>>> quantitative_result("Cc1cccc(/C=N\\NC(=S)N2CCCCC2)n1")
99
>>> quantitative_result("O=C(NCCCCCN1CCC2(CCCCC2)CC1)C(C1CCCCC1)C1CCCCC1")
99
>>> quantitative_result("Cc1ccc2c(ccc(/C=C/c3ccc(O)c4ncccc34)[n+]2C)c1")
92
>>> quantitative_result("CO[C@@]12[C@H](COC(N)=O)C3=C(C(=O)C(C)=C(N)C3=O)N1C[C@@H]1N[C@@H]12")
71
>>> quantitative_result("O=c1[nH]c2ccccc2c2nc3ccccc3n12")
23
>>> quantitative_result("COc1cc(/C=C/c2sc3ccccc3[n+]2C)ccc1N(C)C")
82
>>> quantitative_result("CCCCCC#CCOC(=O)C(=[N+]=[N-])P(=O)(c1ccccc1)c1ccccc1")
16
>>> quantitative_result("CC(=O)C1(O)Cc2c(O)c3c(c(O)c2C(OC2CC(N)C(O)C(C)O2)C1)C(=O)c1ccccc1C3=O (stereo not given)")
97
>>> quantitative_result("CC1=CCCC2C1(C)CCC(C)C2(C)Cc1cc(O)ccc1O (stereo not given)")
99
>>> quantitative_result("COc1ccc(/C=C(\\NC(=O)c2ccccc2)C(=O)NN(C)c2ccnc3cc(Cl)ccc23)cc1OC")
21
>>> quantitative_result("S=C(S)NCC1CCC(CNC(=S)S)CC1 (stereo not given)")
48
>>> quantitative_result("CCCc1[nH]nc(C(N)=O)c1N=NN(C)C")
56
>>> quantitative_result("NNC(=S)Nc1cccc(Cl)c1")
32
>>> quantitative_result("COC(=O)/C=C1/OC(c2ccc(Br)cc2)=C(Br)C1=O")
-27
>>> quantitative_result("O=C(N/N=C\\c1c(Cl)cccc1Cl)N/N=C/c1c(Cl)cccc1Cl")
10
>>> quantitative_result("CN(C)Cc1cccc(CN(C)C)[c]1[Sn]([Br])([c]1ccccc1)[c]1ccccc1")
81
>>> quantitative_result("S=c1nc(Cl)cc2[nH]c(Cl)cn12")
42
>>> quantitative_result("Cc1c(-c2ccccc2)[nH]c2ccccc12")
97
>>> quantitative_result("COCCCN(Cc1cc(OC)c(OC)c(OC)c1)C(=S)Nc1cccc(Cl)c1")
-16
>>> quantitative_result("O=C(/C=N/O)Nc1cc(Cl)c(Cl)cc1Cl")
28
>>> quantitative_result("CN(Cc1cnc2nc(N)nc(N)c2n1)c1ccc(C(=O)NC(CCC(=O)O)C(=O)O)c2ccccc12 (stereo not given)")
82
>>> quantitative_result("[Pt].c1ccc(P(CCP(c2ccccc2)c2ccccc2)CCP(c2ccccc2)c2ccccc2)cc1")
96
>>> quantitative_result("CC1CCC2(C(=O)O)CCC3(C)C(=CCC4C5(C)CC(O)C(O)C(C)(CO)C5C(O)CC43C)C2C1C (stereo not given)")
-17
>>> quantitative_result("O=C1CSC(=S)N1Cc1ccc(Cl)cc1Cl")
99
